# Test system: THRa homodimer (NR concentration 90 nM)
# test_details: PBM binding z-score (relative to random genomic background probes); higher = stronger binding; sequences stand for … in GC…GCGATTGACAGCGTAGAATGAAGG
# cutoff 1 applies to PBM binding z-score; >= gives 1.0, < gives 0.0

{"input_sequence": "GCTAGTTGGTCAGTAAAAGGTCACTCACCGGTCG", "assigned_label": 1.0}
{"input_sequence": "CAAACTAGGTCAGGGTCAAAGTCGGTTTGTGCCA", "assigned_label": 1.0}
{"input_sequence": "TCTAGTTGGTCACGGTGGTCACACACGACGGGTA", "assigned_label": 0.0}
{"input_sequence": "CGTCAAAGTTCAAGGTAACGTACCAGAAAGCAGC", "assigned_label": 1.0}
{"input_sequence": "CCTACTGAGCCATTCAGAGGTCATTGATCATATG", "assigned_label": 1.0}
{"input_sequence": "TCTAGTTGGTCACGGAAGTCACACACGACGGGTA", "assigned_label": 0.0}
{"input_sequence": "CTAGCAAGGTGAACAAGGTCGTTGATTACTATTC", "assigned_label": 1.0}
{"input_sequence": "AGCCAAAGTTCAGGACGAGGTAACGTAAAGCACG", "assigned_label": 1.0}
{"input_sequence": "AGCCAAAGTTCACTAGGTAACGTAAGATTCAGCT", "assigned_label": 0.0}
{"input_sequence": "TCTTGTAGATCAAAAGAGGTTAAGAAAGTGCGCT", "assigned_label": 0.0}
{"input_sequence": "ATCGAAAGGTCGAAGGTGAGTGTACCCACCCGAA", "assigned_label": 0.0}
{"input_sequence": "CGTCAAAGTTCAACTAAGGTAATGTAAAGCACGC", "assigned_label": 1.0}
{"input_sequence": "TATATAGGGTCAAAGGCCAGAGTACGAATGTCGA", "assigned_label": 1.0}
{"input_sequence": "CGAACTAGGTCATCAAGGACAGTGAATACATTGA", "assigned_label": 1.0}
{"input_sequence": "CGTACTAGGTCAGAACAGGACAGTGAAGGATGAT", "assigned_label": 0.0}
{"input_sequence": "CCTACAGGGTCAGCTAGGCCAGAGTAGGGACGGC", "assigned_label": 0.0}
{"input_sequence": "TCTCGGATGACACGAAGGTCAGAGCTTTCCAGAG", "assigned_label": 0.0}
{"input_sequence": "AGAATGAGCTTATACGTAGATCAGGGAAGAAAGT", "assigned_label": 0.0}
{"input_sequence": "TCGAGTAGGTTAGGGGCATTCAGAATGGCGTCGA", "assigned_label": 0.0}
{"input_sequence": "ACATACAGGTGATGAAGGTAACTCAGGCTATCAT", "assigned_label": 0.0}
{"input_sequence": "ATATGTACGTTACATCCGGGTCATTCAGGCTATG", "assigned_label": 1.0}
{"input_sequence": "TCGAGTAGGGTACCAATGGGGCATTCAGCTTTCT", "assigned_label": 0.0}
{"input_sequence": "TCAGACAGGTGAAGGTAACTCATGTACGCAGTCG", "assigned_label": 0.0}
{"input_sequence": "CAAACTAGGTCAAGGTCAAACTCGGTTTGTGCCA", "assigned_label": 1.0}
{"input_sequence": "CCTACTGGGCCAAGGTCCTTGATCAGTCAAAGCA", "assigned_label": 0.0}
{"input_sequence": "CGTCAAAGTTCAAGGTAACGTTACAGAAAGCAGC", "assigned_label": 1.0}

###

# Tested on: RARg homodimer (NR concentration 270 nM)
# test_details: PBM binding z-score (relative to random genomic background probes); higher = stronger binding; sequences stand for … in GC…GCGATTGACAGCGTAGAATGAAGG

{"input_sequence": "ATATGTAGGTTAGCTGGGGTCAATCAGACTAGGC", "PBM binding z-score": 3.37}
{"input_sequence": "CCTCGGAGGACAACAGGAGGTCAGAACTGCCAGA", "PBM binding z-score": 3.05}
{"input_sequence": "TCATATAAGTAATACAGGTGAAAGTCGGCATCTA", "PBM binding z-score": 0.621}
{"input_sequence": "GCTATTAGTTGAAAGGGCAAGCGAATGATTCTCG", "PBM binding z-score": 1.04}
{"input_sequence": "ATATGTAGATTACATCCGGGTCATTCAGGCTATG", "PBM binding z-score": 1.21}
{"input_sequence": "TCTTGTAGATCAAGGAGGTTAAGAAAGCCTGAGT", "PBM binding z-score": -0.0688}
{"input_sequence": "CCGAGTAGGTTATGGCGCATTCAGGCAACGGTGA", "PBM binding z-score": 0.1}
{"input_sequence": "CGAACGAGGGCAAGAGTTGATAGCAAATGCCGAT", "PBM binding z-score": 1.85}
{"input_sequence": "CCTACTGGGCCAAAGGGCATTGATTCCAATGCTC", "PBM binding z-score": 0.727}
{"input_sequence": "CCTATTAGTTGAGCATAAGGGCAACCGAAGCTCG", "PBM binding z-score": 0.652}
{"input_sequence": "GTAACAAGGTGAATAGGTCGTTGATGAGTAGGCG", "PBM binding z-score": 1.68}
{"input_sequence": "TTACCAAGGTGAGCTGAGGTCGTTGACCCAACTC", "PBM binding z-score": 0.471}
{"input_sequence": "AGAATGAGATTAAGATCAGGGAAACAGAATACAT", "PBM binding z-score": 0.312}
{"input_sequence": "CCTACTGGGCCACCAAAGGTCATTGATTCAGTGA", "PBM binding z-score": 4.52}
{"input_sequence": "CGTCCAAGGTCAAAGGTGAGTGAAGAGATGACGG", "PBM binding z-score": 6.63}
{"input_sequence": "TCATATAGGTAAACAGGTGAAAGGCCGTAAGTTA", "PBM binding z-score": 0.375}
{"input_sequence": "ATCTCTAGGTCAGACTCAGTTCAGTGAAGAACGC", "PBM binding z-score": 4.03}
{"input_sequence": "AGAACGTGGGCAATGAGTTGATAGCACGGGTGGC", "PBM binding z-score": -0.147}
{"input_sequence": "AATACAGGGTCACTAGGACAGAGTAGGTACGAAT", "PBM binding z-score": 4.79}
{"input_sequence": "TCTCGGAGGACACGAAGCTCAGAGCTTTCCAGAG", "PBM binding z-score": 0.869}
{"input_sequence": "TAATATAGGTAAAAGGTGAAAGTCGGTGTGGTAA", "PBM binding z-score": 1.32}
{"input_sequence": "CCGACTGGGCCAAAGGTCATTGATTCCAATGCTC", "PBM binding z-score": 4.4}

###

# Tested on: PPARg:RXRa 270nM:90nM, anti-RXR (NR concentration 270 nM, RXRa partner concentration 90 nM)
# test_details: PBM binding z-score (relative to random genomic background probes); higher = stronger binding; sequences stand for … in GC…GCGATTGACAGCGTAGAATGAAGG
Given measured PBM binding z-score, output Criterion met if it is greater than or equal to 3 and Criterion not met if not.

{"input_sequence": "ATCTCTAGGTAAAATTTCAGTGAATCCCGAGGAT", "assigned_label": "Criterion not met"}
{"input_sequence": "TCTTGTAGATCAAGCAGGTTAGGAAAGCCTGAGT", "assigned_label": "Criterion not met"}
{"input_sequence": "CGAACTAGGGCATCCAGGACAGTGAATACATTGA", "assigned_label": "Criterion not met"}
{"input_sequence": "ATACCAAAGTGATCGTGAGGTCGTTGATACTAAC", "assigned_label": "Criterion not met"}
{"input_sequence": "CCTTACGGGTCACTCCAGGTTATAGTATCGGAGT", "assigned_label": "Criterion met"}
{"input_sequence": "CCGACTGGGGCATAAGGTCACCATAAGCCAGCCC", "assigned_label": "Criterion met"}

The origin of these recorded values is the supplement of paper PMC6555819.
